# ASSAY_SYSTEM: human CD28 (human, UniProt P10747 19-220, On cells CD28 is a disulfide linked homodimer and a glycoprotein; one copy of the chain is given.)
# Sequence (P10747 19-220 limits assumed): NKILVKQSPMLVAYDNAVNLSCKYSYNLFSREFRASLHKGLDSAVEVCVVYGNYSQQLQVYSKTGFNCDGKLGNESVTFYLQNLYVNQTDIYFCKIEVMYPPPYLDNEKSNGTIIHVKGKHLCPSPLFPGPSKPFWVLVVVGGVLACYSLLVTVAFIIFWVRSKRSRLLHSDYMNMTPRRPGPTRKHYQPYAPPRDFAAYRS
# PROTOCOL_DETAILS: cell-based or functional assay
Quick list: Expansion Index (no anti-CD3) per entry.
Answer with a bare number; do not write a unit.

Example entries and their recorded answers appear below.
BINDER	READING
exemplary anti-CD28 antibody AB3 (antibody, V domains shown, Mouse hybridoma monoclonal antibody; Conjugated to PE in the staining assays; also called antibody 3; clone 3) VH: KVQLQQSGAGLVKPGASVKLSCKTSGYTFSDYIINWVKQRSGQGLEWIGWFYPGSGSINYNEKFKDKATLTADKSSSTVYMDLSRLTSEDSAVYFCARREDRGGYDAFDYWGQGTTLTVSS VL: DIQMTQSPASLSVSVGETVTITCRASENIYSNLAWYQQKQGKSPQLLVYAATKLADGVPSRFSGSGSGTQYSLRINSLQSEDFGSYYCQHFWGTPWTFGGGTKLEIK	1.01
exemplary anti-CD28 antibody AB6 (antibody, V domains shown, Mouse hybridoma monoclonal antibody; Conjugated to PE in the staining assays; also called antibody 6; clone 6) VH: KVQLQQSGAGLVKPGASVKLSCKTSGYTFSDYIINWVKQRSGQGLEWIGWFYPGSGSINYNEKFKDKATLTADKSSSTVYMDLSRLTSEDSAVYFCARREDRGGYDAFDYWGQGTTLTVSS VL: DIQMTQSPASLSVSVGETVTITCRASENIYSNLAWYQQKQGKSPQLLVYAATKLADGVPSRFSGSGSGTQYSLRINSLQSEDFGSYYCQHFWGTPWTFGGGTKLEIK	1.01
exemplary anti-CD28 antibody AB5 (antibody, V domains shown, Mouse hybridoma monoclonal antibody; Conjugated to PE in the staining assays; also called antibody 5; clone 5) VH: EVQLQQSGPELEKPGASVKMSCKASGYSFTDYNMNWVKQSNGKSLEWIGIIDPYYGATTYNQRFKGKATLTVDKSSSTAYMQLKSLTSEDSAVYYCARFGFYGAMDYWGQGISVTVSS VL: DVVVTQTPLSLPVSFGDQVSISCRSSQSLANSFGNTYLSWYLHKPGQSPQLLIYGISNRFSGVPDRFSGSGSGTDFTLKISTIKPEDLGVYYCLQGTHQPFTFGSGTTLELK	1.01
exemplary anti-CD28 antibody AB2 (antibody, V domains shown, Mouse hybridoma monoclonal antibody; also called antibody 2; clone 2) VH: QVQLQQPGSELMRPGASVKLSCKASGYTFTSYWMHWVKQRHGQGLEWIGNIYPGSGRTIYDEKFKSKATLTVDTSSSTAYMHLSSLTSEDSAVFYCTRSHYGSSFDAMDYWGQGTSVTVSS VL: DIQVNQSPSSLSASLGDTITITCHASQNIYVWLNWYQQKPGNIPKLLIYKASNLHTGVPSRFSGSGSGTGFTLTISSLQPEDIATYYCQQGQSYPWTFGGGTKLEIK	6.13
exemplary anti-CD28 antibody AB1 (antibody, V domains shown, Mouse hybridoma monoclonal antibody; also called antibody 1; clone 1) VH: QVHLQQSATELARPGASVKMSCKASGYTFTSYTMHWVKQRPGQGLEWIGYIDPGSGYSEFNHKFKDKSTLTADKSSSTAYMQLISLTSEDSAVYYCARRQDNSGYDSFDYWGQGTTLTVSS VL: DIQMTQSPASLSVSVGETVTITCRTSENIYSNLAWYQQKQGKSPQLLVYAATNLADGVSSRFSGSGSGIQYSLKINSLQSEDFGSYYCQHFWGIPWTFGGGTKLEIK	1.01

Let us move to another entry and its Expansion Index (no anti-CD3).
Need Expansion Index (no anti-CD3), item exemplary anti-CD28 antibody AB7 (antibody, V domains shown, Mouse hybridoma monoclonal antibody; Conjugated to PE in the staining assays; also called antibody 7; clone 7) VH: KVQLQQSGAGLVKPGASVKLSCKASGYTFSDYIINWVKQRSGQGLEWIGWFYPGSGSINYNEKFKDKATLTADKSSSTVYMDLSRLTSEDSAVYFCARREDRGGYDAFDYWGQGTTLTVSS VL: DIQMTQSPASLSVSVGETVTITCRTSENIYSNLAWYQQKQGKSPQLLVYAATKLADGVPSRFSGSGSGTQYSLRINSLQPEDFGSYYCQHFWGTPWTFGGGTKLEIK
1.03
